Each entry below carries its reported pIC50.
# study_system: NDM-1 (Klebsiella pneumoniae)
# Sequence (C7C422 29-270 limits assumed): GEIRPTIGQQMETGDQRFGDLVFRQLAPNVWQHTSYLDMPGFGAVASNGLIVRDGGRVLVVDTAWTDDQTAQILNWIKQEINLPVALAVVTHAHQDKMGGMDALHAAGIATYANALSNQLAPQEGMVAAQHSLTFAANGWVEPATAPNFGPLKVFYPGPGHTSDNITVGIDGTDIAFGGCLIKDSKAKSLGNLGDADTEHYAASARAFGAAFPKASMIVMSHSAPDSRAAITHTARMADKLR
pIC50: −log10 of the molar value.
parameter: pIC50

molecule: O=C(O)/C=C/C(=O)O
recorded_result: 3.63
--
molecule: O=C(O)c1cccc(C(=O)O)n1
recorded_result: 5.95
--
molecule: O=C(O)[C@@H](O)[C@H](O)C(=O)O [Compound 5, D-(−)-tartaric acid]
recorded_result: 3.39
--
molecule: O=C(O)[C@H]1CS[C@@H](C(=O)O)N1 (racemic)
recorded_result: 5.46

---

Parameter pKi, tested on NDM-1 (Klebsiella pneumoniae), listed per item.
pKi: −log10 of the molar value.
parameter: pKi

molecule: O=C(O)[C@H]1CS[C@@H](C(=O)O)N1 (racemic)
recorded_result: 3.82
--
molecule: O=C(O)/C=C/C(=O)O
recorded_result: 3.70
--
molecule: O=C(O)c1cccc(C(=O)O)n1
recorded_result: 5.66
--
molecule: O=C(O)[C@@H](O)[C@H](O)C(=O)O [Compound 5, D-(−)-tartaric acid]
recorded_result: 3.44
